# Assay info: Inhibition of autoxidation of pure triacylglycerols of sunflower oil at 1 mM by iodometric analysis
# Type: toxicity
# Run conditions: 1000 µM
Reported property: inhibition (INH)

Consider the reported inhibition (INH) for these molecules:
Fill in: inhibition (INH) of COC(=O)[C@H](Cc1ccc(O)c(O)c1)NC(=O)/C=C/c1ccc(O)c(O)c1 is ___
Active

Proceed to COc1cc(/C=C/C(=O)NCCc2ccc(O)cc2)cc(OC)c1O [TRANS-N-SINAPOYLTYRAMINE]
Active

Proceed to O=C(O)/C=C/c1ccccc1
Not Active

Proceed to COC(=O)[C@H](Cc1ccc(O)c(O)c1)NC(=O)/C=C/c1cc(OC)c(O)c(OC)c1
Active

Proceed to COC(=O)[C@H](Cc1c[nH]c2ccccc12)NC(=O)/C=C/c1ccc(O)c(O)c1
Active

Proceed to COC(=O)[C@H](Cc1ccccc1)NC(=O)/C=C/c1ccc(O)c(O)c1
Active

***
Fill in: inhibition (INH) of COc1cc(/C=C/C(=O)O)ccc1O [FERULATE] is ___
Active

Proceed to COC(=O)[C@H](Cc1ccc(O)c(O)c1)NC(=O)/C=C/c1ccccc1
Active

Proceed to O=C(O)/C=C/c1ccc(O)cc1
Not Active

Proceed to O=C(O)/C=C/c1ccc(O)c(O)c1
Active

Proceed to COc1cc(/C=C/C(=O)O)cc(OC)c1O [SINAPINATE]
Active

Proceed to COC(=O)[C@H](Cc1ccc(O)c(O)c1)NC(=O)/C=C/c1ccc(O)cc1
Active

* * *

# System: Radical scavenging activity
# Assay info: Antioxidant activity assessed as DPPH radical scavenging activity at 0.9 mM after 20 min
# Assay type: functional
Reported property: Activity (%)
Just the number in %, nothing appended.

Consider the reported Activity for these compounds:
Fill in: Activity of COC(=O)[C@H](Cc1c[nH]c2ccccc12)NC(=O)/C=C/c1cc(OC)c(O)c(OC)c1 is ___
14.6

Proceed to COC(=O)[C@H](Cc1ccc(O)c(O)c1)NC(=O)/C=C/c1ccc(O)c(O)c1 [N-CAFFEOYL-DOPA METHYL ESTER]
50.5

From here, focus on the item given below.
Fill in: Activity of O=C(O)/C=C/c1ccc(O)c(O)c1 [CAFFEIC ACID] is ___
34.1
